system: C. difficile 159; assay: MIC by agar dilution against Clostridioides difficile, test strain 15; format: cell-based; settings: test strain 15, C. difficile 159, anaerobic, agar dilution, read-out: MIC
experimental.readout: MIC (µg/mL)
Just the number in µg/mL, nothing appended.

Some compounds with recorded MIC:
C/C=C(\NC(=O)c1csc(-c2csc(-c3ccc4c(n3)-c3csc(n3)[C@H]([C@@H](C)O)NC(=O)c3csc(n3)[C@H](C(C)C)NC(=O)c3csc(n3)/C(=C/C)NC(=O)[C@H]([C@@H](C)O)NC(=O)c3csc-4n3)n2)n1)C(=O)NCCn1c([N+](=O)[O-])cnc1C
1
C/C=C1\NC(=O)[C@H]([C@@H](C)O)NC(=O)c2csc(n2)-c2ccc(-c3nc(-c4nc(C(=O)NC5(C(=O)NCCCN6CCOCC6)CC5)cs4)cs3)nc2-c2csc(n2)[C@H]([C@@H](C)O)NC(=O)c2csc(n2)[C@H](C(C)C)NC(=O)c2csc1n2
0.25
C/C=C1\NC(=O)[C@H]([C@@H](C)O)NC(=O)c2csc(n2)-c2ccc(-c3nc(-c4nc(C(=O)NC5(C(=O)NCCn6ccnc6[N+](=O)[O-])CC5)cs4)cs3)nc2-c2csc(n2)[C@H]([C@@H](C)O)NC(=O)c2csc(n2)[C@H](C(C)C)NC(=O)c2csc1n2
1

Now let's try a different one.
## Input For the compound shown here, C/C=C1\NC(=O)[C@H]([C@@H](C)O)NC(=O)c2csc(n2)-c2ccc(-c3nc(-c4nc(C(=O)NC5(C(=O)NCCCCB(O)O)CC5)cs4)cs3)nc2-c2csc(n2)[C@H]([C@@H](C)O)NC(=O)c2csc(n2)[C@H](C(C)C)NC(=O)c2csc1n2 , give the reported MIC.
## Output 0.5
